target: TbrCatL (Trypanosoma brucei rhodesiense, UniProt Q95PM0); construct: Conor Caffrey (University of California San Diego); assay: TbrCatL enzymatic inhibition assay (cleavage of fluorogenic substrate Z-FR-AMC); type: biochemical; settings: 10’ (pre-incubation time); sheet "Screening results";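 also: at 5 µM compound concentration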
Sequence (Q95PM0 entry or part of it): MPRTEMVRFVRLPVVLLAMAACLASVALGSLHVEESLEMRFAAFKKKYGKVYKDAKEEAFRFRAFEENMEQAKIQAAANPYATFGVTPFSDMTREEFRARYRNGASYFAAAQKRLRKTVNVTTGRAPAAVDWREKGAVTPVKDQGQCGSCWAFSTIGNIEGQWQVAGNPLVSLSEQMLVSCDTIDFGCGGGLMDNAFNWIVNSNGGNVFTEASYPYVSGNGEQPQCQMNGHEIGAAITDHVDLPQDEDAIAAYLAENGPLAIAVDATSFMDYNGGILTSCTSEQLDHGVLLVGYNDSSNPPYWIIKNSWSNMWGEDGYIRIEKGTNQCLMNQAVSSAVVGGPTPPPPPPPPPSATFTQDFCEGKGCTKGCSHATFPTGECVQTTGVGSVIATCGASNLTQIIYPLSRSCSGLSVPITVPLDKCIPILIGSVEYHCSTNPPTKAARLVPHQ
# TbrCatL 10’ Inhibition per record follows
Respond with a number, then the unit of measure.

Solved entries (count: 3):
COc1cccc(-c2nc3c(N4CCCC4)cccc3n2CC2CCCN2)n1 (stereo not shown) [MMV687703]: 16%
COc1ccc2nc(C)cc(OCC(=O)Nc3ccccc3OC)c2c1 [MMV687188]: 3%
CN1CCC(c2cc(-c3ccncc3)c(-c3ccc(F)cc3)[nH]2)CC1 [MMV688703]: 3.6%

# input for lookup
stdin: Return reported TbrCatL 10’ Inhibition; argument: O=C1O[C@@H](COc2ccon2)CN1c1cc(F)c(C2=CCN(Cc3ccccc3)CC2)c(F)c1 [MMV687813]
stdout: -1%
